- test_summary: folding stability dG unfold from trypsin proteolysis; higher = more stable

sequence_data	unit_name	folding stability dG unfold
SAGGMTIEEILNMSIEEVKALAEEKGLKEVVITLPDGSKITIKVNKDGSIEVTVTNKDGSKKTFTFPSAGGS [r8_51_TrROS_Hall]	kcal/mol	3.91
SAGGSAGGSAGGSGGSMEVSISEAPPEYLVVTVYDPATGKTTVRKVSPSEVKSLKYEGGSAGGSAGGSAGGS [r4_494_JUSTAS]	kcal/mol	0.274
SAPVIEITEVTFNPDGSVEVTLVIPFPDDPEIPPEEIAKAIKEAFGFEEVTVEPIPETGAWRITLRAPGSAG [r14_228_TrMRF]	kcal/mol	3.4
SAGGMELLGEVTVEKPGKPITFPIYRVPDEPREVVEVRELDPSTGKWTPIGTRELPPGEAERAIEELSAGGS [r8_423_JUSTAS]	kcal/mol	0.36
SAGGSAPMFEIWFRDPEAIEKLLEESGFPVSIERFPNDPNWVKITIFMKGPMEEAQDKLREALGLESAGGSA [r15_118_TrROS]	kcal/mol	2.29
SAGGKKKIKIIEKKKINGKTILKIEVDGKKIIIIKTPNKVYIFVIDKNGKKKVIEMSPEEALKKLIEKSAGG [r13_98_TrROS_Hall]	kcal/mol	2.08
SAGGNAKEIASYLADWFQERFPPNMKVKVSVTVTPDGIVVRIRMPGGWQFEITIKDGKLQEIEWTPYSAGGS [r8_287_TrROS]	kcal/mol	2.72
